// provenance: paper PMC4193996

test system: hairpin duplex, 5'-biotin-CGA3T3C(CT)2GA3T3CG (DNA, hairpin) CGAAATTTCCTCTGAAATTTCG; test: SPR
In this section, each of the compounds is paired with its reported K.
Entry rule: numbers only, all in M⁻¹.

Please review the following examples before continuing.
> print(dat)
                                   compound                               target.desc  observed.measurement
1  Cc1cc2c3c([n+](C)c4ccc(F)cc4c3c1)-c1cc(F)ccc1N2C [Compound 1, reference compound]  hairpin duplex, 5'-biotin-CGA3T3C(CT)2GA3T3CG (DNA, hairpin) CGAAATTTCCTCTGAAATTTCG                600000
2  CN1c2ccccc2-c2c3c1cccc3c1ccc(CN)cc1[n+]2C  hairpin duplex, 5'-biotin-CGA3T3C(CT)2GA3T3CG (DNA, hairpin) CGAAATTTCCTCTGAAATTTCG               1.1e+06

Now for another entry.
Query block: # return K of CN(C)CC#Cc1ccc2c3cccc4c3c([n+](C)c2c1)-c1ccccc1N4C (system: hairpin duplex, 5'-biotin-CGA3T3C(CT)2GA3T3CG (DNA, hairpin) CGAAATTTCCTCTGAAATTTCG)
Result block: 900000
